Molecular target: recombinant CYP-17 (Homo sapiens (Human))
Sequence (P05093 whole entry, species assumed): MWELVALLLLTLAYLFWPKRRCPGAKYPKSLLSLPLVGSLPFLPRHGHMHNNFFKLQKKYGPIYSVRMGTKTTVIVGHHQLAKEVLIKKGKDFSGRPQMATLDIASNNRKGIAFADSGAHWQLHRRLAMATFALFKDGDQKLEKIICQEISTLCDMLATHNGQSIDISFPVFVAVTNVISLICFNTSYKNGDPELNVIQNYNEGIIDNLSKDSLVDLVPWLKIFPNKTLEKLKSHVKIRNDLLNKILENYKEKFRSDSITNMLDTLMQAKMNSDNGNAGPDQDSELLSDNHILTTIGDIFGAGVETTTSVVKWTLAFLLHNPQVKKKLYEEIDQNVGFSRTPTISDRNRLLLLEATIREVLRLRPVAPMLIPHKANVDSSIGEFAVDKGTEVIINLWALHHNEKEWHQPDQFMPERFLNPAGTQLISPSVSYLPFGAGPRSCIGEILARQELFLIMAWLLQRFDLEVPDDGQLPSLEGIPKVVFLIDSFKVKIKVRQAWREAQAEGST
Assay: Cyp17 assay protocol (3H-acetic acid release from [21-3H] 17α-hydroxyl-Pregnenolone)
Conditions: AD293 cells over-expressing recombinant CYP-17
Protocol: Cyp17 assay protocol: AD293 cells that stably over-express recombinant CYP-17 were seeded in 96 well plates coated with poly D-lysine (15,000 cell per well) and incubated at 37° C. for 24 hours in Dulbecco's Modified Eagle Medium (DMEM) with Fetal Bovine Serum (FBS) that is stripped of hormones by charcoal treatment. […] The aqueous layer is then separated and analyzed for the presence of ^3H-acetic acid using a Perkin Elmer Topcount NXT to determine IC50s of the compounds of the disclosure.
Doc: threshold 5 nM (exclusive). Items with IC50 beneath it return Met; others return Not met.

Example entries and their recorded answers appear below.
>>> print(df.to_string())
                           structure_string  label_value
0   Fc1cc(/C=C/c2ccc(Br)cc2)cc(-c2ccncc2)c1      Not met
1  CCOC(=O)CNC(=O)N1CCN(c2ccc(/C=C/c3cc(Cl)cc(Cn4ccnc4)c3)cc2)CC1      Not met

## Input Please state whether IC50 is below 5 nM for `N#Cc1cccc(C(=O)N2CCN(c3ccc(/C=C/c4cc(Cl)cc(Cn5ccnc5)c4)cc3)CC2)c1`
## Output Not met

## Input Please state whether IC50 is below 5 nM for `O=S(=O)(C1CC1)N1CCN(c2ccc(CCc3cc(F)cc(-c4ccncc4)c3)cc2)CC1`
## Output Met

## Input Please state whether IC50 is below 5 nM for `O=S(=O)(c1cccnc1)N1CCN(c2ccc(/C=C/c3cc(F)cc(-c4ccncc4)c3)cc2)CC1`
## Output Not met

====

biological target: recombinant CYP-11 (Homo sapiens (Human)); test: Cyp11 assay protocol (cortisol formation from 11-deoxycortisol, LC/MS); settings: AD293 cells over-expressing recombinant CYP-11
Sequence (P15538 25-503): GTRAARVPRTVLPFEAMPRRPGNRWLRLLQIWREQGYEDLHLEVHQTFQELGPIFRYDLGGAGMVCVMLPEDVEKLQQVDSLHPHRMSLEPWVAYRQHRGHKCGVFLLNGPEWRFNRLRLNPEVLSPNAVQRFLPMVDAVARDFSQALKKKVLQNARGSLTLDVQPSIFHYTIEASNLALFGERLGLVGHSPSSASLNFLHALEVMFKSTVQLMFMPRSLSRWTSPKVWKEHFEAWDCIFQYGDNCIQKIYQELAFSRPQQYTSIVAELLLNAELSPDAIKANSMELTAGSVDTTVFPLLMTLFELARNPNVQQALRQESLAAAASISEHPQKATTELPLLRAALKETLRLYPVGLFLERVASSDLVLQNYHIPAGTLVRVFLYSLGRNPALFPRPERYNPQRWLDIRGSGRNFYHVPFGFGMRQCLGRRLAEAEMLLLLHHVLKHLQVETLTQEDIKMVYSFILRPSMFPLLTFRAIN
Doc: threshold 200 nM (exclusive). Items with IC50 beneath it return YES; others return NO.

Example entries and their recorded answers appear below.
                                   compound  label_value
0  CCOC(=O)CNC(=O)NC1CCN(c2ccc(/C=C/c3cc(Cl)cc(Cn4ccnc4)c3)cc2)CC1           NO
1  CC(=O)N1CCN(c2ccc(/C=C/c3cc(Cl)cc(C(O)(c4cccnc4)C(C)C)c3)cc2)CC1 (centres unmarked)           NO
2  CCOC(=O)CNC(=O)N1CCN(c2ccc(CCc3cc(F)cc(-c4ccncc4)c3)cc2)CC1          YES
3  CC(=O)N1CCN(c2ccc(/C=C/c3cc(Cl)cc(C(=C(C)C)c4cccnc4)c3)cc2)CC1           NO

Alright, here's another compound for you.
## Input Please state whether IC50 is below 200 nM for `CC(=O)N1CCN(c2ccc(/C=C/c3cc(Cl)cc(Cc4cccnc4)c3)cc2)CC1`
## Output YES

====

target: recombinant CYP-21 (Homo sapiens (Human)); experiment: Cyp21 assay protocol (11-deoxycortisol formation from 17α-OH Progesterone, LC/MS); conditions: AD293 cells over-expressing recombinant CYP-21
Sequence (P08686 whole entry, species assumed): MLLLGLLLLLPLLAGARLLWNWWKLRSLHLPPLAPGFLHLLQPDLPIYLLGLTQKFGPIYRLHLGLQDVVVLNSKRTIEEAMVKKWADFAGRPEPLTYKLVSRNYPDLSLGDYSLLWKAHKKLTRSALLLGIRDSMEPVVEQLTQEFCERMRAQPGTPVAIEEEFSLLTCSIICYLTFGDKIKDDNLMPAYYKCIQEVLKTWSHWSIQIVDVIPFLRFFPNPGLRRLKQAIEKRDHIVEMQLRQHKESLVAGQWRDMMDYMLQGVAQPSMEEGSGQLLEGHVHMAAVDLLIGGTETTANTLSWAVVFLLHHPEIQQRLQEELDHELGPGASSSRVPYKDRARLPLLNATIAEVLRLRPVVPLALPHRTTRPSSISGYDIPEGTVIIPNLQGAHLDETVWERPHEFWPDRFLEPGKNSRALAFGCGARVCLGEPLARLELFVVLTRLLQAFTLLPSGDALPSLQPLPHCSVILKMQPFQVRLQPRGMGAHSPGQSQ
Doc: threshold 1000 nM (exclusive). Items with IC50 beneath it return 1 (yes); others return 0 (no).

>>> print(df.to_string())
                                   molecule  label_value
0  N#Cc1cccc(CN2CCN(c3ccc(/C=C/c4cc(Cl)cc(Cn5ccnc5)c4)cc3)CC2)c1 [Example 23]      1 (yes)
1  O=S(=O)(C1CC1)N1CCN(c2ccc(/C=C/c3cc(F)cc(-c4ccncc4)c3)cc2)CC1 [Example 35]      1 (yes)
2  O=S(=O)(c1cccnc1)N1CCN(c2ccc(/C=C/c3cc(Cl)cc(Cn4ccnc4)c3)cc2)CC1 [Example 21]       0 (no)
3  CC(=O)N1CCN(c2ccc(/C=C/c3cc(Cl)cc(C(=C(C)C)c4cccnc4)c3)cc2)CC1 [Example 30]       0 (no)
4  Fc1cc(CCc2ccc(-c3ccncc3)cc2)cc(-c2ccncc2)c1 [Example 37]      1 (yes)

## Input Please state whether IC50 is below 1000 nM for CC(=O)N1CCN(c2ccc(/C=C/c3cc(Cl)cc(-c4ccncc4)c3)cc2)CC1 [Example 31]
## Output 0 (no)

## Input Please state whether IC50 is below 1000 nM for CC(C)S(=O)(=O)N1CCN(c2ccc(/C=C/c3cc(F)cc(-c4ccncc4)c3)cc2)CC1 [Example 40]
## Output 1 (yes)
